Taken from paper PMC7139656.

- Assayed system: BTK (Homo sapiens, UniProt Q06187)
- Sequence (Q06187 whole entry): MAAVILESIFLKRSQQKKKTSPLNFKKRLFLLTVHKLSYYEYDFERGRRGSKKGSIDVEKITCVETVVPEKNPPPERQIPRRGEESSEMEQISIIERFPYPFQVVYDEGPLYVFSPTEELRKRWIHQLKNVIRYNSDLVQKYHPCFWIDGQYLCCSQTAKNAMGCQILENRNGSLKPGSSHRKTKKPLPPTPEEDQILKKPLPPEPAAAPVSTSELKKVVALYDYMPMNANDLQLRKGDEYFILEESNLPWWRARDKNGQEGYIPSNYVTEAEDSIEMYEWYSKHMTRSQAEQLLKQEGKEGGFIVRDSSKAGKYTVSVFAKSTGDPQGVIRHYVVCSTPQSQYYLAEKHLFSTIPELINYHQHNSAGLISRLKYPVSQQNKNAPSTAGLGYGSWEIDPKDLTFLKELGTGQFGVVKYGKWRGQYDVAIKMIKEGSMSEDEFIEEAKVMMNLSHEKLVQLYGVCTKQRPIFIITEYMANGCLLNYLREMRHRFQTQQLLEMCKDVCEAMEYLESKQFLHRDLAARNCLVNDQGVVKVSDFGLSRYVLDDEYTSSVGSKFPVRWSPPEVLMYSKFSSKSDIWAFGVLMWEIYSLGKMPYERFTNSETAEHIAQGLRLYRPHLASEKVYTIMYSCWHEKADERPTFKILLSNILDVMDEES
Endpoint label: IC50 (nM)
Give the value in nM but do not write nM after it.

Q: Give IC50 only, for CCCCc1ccc(NS(=O)(=O)c2ccc(C)c(C(=O)N3CCN(c4ccccc4O)CC3)c2)cc1 , using BTK (Homo sapiens, UniProt Q06187) data.
Result: 4940

Q: Give IC50 only, for CCCCc1ccc(NS(=O)(=O)c2ccc(C)c(C(=O)N3CCN(c4ccccc4OCCF)CC3)c2)cc1 , using BTK (Homo sapiens, UniProt Q06187) data.
Result: 522

###

Each record here notes measured IC50.
- System: HCT 116 p53+/+
- Assay comment: Cytotoxicity / antiproliferative activity, MTS test
- Type: cell-based
- Experimental setup: Homo sapiens, 72-h incubation
Give the value in µM but do not write µM after it.

Q: Recall and state the measured IC50 for CCCCc1ccc(NS(=O)(=O)c2ccc(C)c(C(=O)N3CCN(c4ccccc4O)CC3)c2)cc1 .
Result: 24.7

Turning now to a further record.
Q: Recall and state the measured IC50 for CCCCc1ccc(NS(=O)(=O)c2ccc(C)c(C(=O)N3CCN(c4ccccc4OCCF)CC3)c2)cc1 .
Result: 24.4
